In this section, each of the compounds is paired with its reported relative viability.
Test system: HCC-15
method-notes: relative viability (nuclei count vs DMSO), 5 days (fraction); higher = more cells survive
stated-conditions: first compound 15.81 µM
Output: the number by itself.

- compound: "O=C(O)CCCCC(CCSCc1ccccc1)SCc1ccccc1 (stereo not given) [CPI-613] + CS(=O)(=O)CCNCc1ccc(-c2ccc3ncnc(Nc4ccc(OCc5cccc(F)c5)c(Cl)c4)c3c2)o1 [Lapatinib] (partner 2 µM)"
  reported-value: 0.801
- compound: "O=C(O)CCCCC(CCSCc1ccccc1)SCc1ccccc1 (stereo not given) [CPI-613] + Cc1nc(Nc2ncc(C(=O)Nc3c(C)cccc3Cl)s2)cc(N2CCN(CCO)CC2)n1 [Dasatinib] (partner 0.075 µM)"
  reported-value: 0.529

GET /values?readout=relative viability&item= O=C(O)CCCCC(CCSCc1ccccc1)SCc1ccccc1 (stereo not given) [CPI-613] + CC(C)C[C@H](NC(=O)[C@H](Cc1ccccc1)NC(=O)c1cnccn1)B(O)O [Bortezomib] (partner 0.002 µM) 0.932

Then what about the compound O=C(O)CCCCC(CCSCc1ccccc1)SCc1ccccc1 (stereo not given) [CPI-613] + O=C(c1cc(Cc2n[nH]c(=O)c3ccccc23)ccc1F)N1CCN(C(=O)C2CC2)CC1 [Olaparib] (partner 8 µM) ? 0.712

Then what about the compound O=C(O)CCCCC(CCSCc1ccccc1)SCc1ccccc1 (stereo not given) [CPI-613] + C[C@@H](Oc1cc(-c2cnn(C3CCNCC3)c2)cnc1N)c1c(Cl)ccc(F)c1Cl [Crizotinib] (partner 1 µM) ? 0.746

====

In this section, each of the molecules is paired with its reported relative viability.
Test system: PC-14
method-notes: relative viability (nuclei count vs DMSO), 5 days (fraction); higher = more cells survive
stated-conditions: first compound 1.265 µM
Output: the number by itself.

- molecule: "Cc1sc2c(c1C)C(c1ccc(Cl)cc1)=N[C@@H](CC(=O)OC(C)(C)C)c1nnc(C)n1-2 [JQ1] + Cc1nc(Nc2ncc(C(=O)Nc3c(C)cccc3Cl)s2)cc(N2CCN(CCO)CC2)n1 [Dasatinib] (partner 0.075 µM)"
  test-system: "PC-14"
  relative viability: 0.14
- molecule: "Cc1sc2c(c1C)C(c1ccc(Cl)cc1)=N[C@@H](CC(=O)OC(C)(C)C)c1nnc(C)n1-2 [JQ1] + CS(=O)(=O)N1CCN(Cc2cc3nc(-c4cccc5[nH]ncc45)nc(N4CCOCC4)c3s2)CC1 [Pictilisib] (partner 1 µM)"
  test-system: "PC-14"
  relative viability: 0.243
- molecule: "Cc1sc2c(c1C)C(c1ccc(Cl)cc1)=N[C@@H](CC(=O)OC(C)(C)C)c1nnc(C)n1-2 [JQ1] + Cc1nc(NC(=O)N2CCC[C@H]2C(N)=O)sc1-c1ccnc(C(C)(C)C(F)(F)F)c1 [Alpelisib] (partner 2 µM)"
  test-system: "PC-14"
  relative viability: 0.59
- molecule: "Cc1sc2c(c1C)C(c1ccc(Cl)cc1)=N[C@@H](CC(=O)OC(C)(C)C)c1nnc(C)n1-2 [JQ1] + CC(C)C[C@H](NC(=O)[C@H](Cc1ccccc1)NC(=O)c1cnccn1)B(O)O [Bortezomib] (partner 0.002 µM)"
  test-system: "PC-14"
  relative viability: 0.346
- molecule: "Cc1sc2c(c1C)C(c1ccc(Cl)cc1)=N[C@@H](CC(=O)OC(C)(C)C)c1nnc(C)n1-2 [JQ1] + COc1cc2c(Oc3ccc(NC(=O)C4(C(=O)Nc5ccc(F)cc5)CC4)cc3F)ccnc2cc1OCCCN1CCOCC1 [Foretinib] (partner 0.25 µM)"
  test-system: "PC-14"
  relative viability: 0.582

Let us move to another entry and its relative viability.
GET /values?readout=relative viability&item= Cc1sc2c(c1C)C(c1ccc(Cl)cc1)=N[C@@H](CC(=O)OC(C)(C)C)c1nnc(C)n1-2 [JQ1] + N=C(N)NC(=N)NCCc1ccccc1 [Phenformin] (partner 250 µM) 0.154

====

Tested on: CAL-12T
method-notes: relative viability (nuclei count vs DMSO), 5 days (fraction); higher = more cells survive
stated-conditions: first compound 0.5 µM
In this section, each of the compounds is paired with its reported relative viability.
Output: the number by itself.

Sample records with relative viability:
- compound: "COc1cc2nccc(Oc3ccc(NC(=O)Nc4cc(C)on4)c(Cl)c3)c2cc1OC [Tivozanib] + CC(=O)c1c(C)c2cnc(Nc3ccc(N4CCNCC4)cn3)nc2n(C2CCCC2)c1=O [Palbociclib] (partner 0.5 µM)"
  test-system: "CAL-12T"
  reported-value: 0.402
- compound: "COc1cc2nccc(Oc3ccc(NC(=O)Nc4cc(C)on4)c(Cl)c3)c2cc1OC [Tivozanib] + NC(=O)Nc1cc(-c2cccc(F)c2)sc1C(=O)N[C@H]1CCCNC1 [AZD7762] (partner 0.2 µM)"
  test-system: "CAL-12T"
  reported-value: 0.71

GET /values?readout=relative viability&item= COc1cc2nccc(Oc3ccc(NC(=O)Nc4cc(C)on4)c(Cl)c3)c2cc1OC [Tivozanib] + O=C(CCCCCCC(=O)Nc1ccccc1)NO [Vorinostat] (partner 1 µM) 0.473

====

Test system: NCI-H2023
method-notes: relative viability (nuclei count vs DMSO), 5 days (fraction); higher = more cells survive
stated-conditions: first compound 4 µM
The label is t for relative viability below 0.1 and f for relative viability equal to or exceeding 0.1.

Examples from the recorded data:
- compound: "Cc1sc2c(c1C)C(c1ccc(Cl)cc1)=N[C@@H](CC(=O)OC(C)(C)C)c1nnc(C)n1-2 [JQ1] + O=C(c1cc(Cc2n[nH]c(=O)c3ccccc23)ccc1F)N1CCN(C(=O)C2CC2)CC1 [Olaparib] (partner 8 µM)"
  label-value: "t"
- compound: "Cc1sc2c(c1C)C(c1ccc(Cl)cc1)=N[C@@H](CC(=O)OC(C)(C)C)c1nnc(C)n1-2 [JQ1] + COc1cc2c(Oc3ccc(NC(=O)C4(C(=O)Nc5ccc(F)cc5)CC4)cc3F)ccnc2cc1OCCCN1CCOCC1 [Foretinib] (partner 0.25 µM)"
  label-value: "f"
- compound: "Cc1sc2c(c1C)C(c1ccc(Cl)cc1)=N[C@@H](CC(=O)OC(C)(C)C)c1nnc(C)n1-2 [JQ1] + COc1cccc2cc(-c3nc([C@H]4CC[C@H](C(=O)O)CC4)n4ncnc(N)c34)[nH]c12 [OSI-027] (partner 0.5 µM)"
  label-value: "f"
- compound: "Cc1sc2c(c1C)C(c1ccc(Cl)cc1)=N[C@@H](CC(=O)OC(C)(C)C)c1nnc(C)n1-2 [JQ1] + O=C(CCCCCCC(=O)Nc1ccccc1)NO [Vorinostat] (partner 1 µM)"
  label-value: "f"

Confirm or reject: relative viability of Cc1sc2c(c1C)C(c1ccc(Cl)cc1)=N[C@@H](CC(=O)OC(C)(C)C)c1nnc(C)n1-2 [JQ1] + Cc1cc(Nc2cc(N3CCN(C)CC3)nc(Sc3ccc(NC(=O)C4CC4)cc3)n2)n[nH]1 [Tozasertib] (partner 0.1 µM) lies strictly below 0.1 t

====

Test system: PC-14
method-notes: relative viability (nuclei count vs DMSO), 5 days (fraction); higher = more cells survive
stated-conditions: first compound 0.5 µM
result-type: relative viability
Output: the number by itself.

Sample records with relative viability:
- compound: "Nc1ccn([C@@H]2O[C@H](CO)[C@@H](O)[C@@H]2O)c(=O)n1 [Cytarabine] + O=C(CCCCCCC(=O)Nc1ccccc1)NO [Vorinostat] (partner 1 µM)"
  test-system: "PC-14"
  relative viability: 0.082
- compound: "Nc1ccn([C@@H]2O[C@H](CO)[C@@H](O)[C@@H]2O)c(=O)n1 [Cytarabine] + COc1cccc2cc(-c3nc([C@H]4CC[C@H](C(=O)O)CC4)n4ncnc(N)c34)[nH]c12 [OSI-027] (partner 0.5 µM)"
  test-system: "PC-14"
  relative viability: 0.115

Let us move to another entry and its relative viability.
GET /values?readout=relative viability&item= COc1cc2nccc(Oc3ccc(NC(=O)Nc4cc(C)on4)c(Cl)c3)c2cc1OC [Tivozanib] + O=C(c1cc(Cc2n[nH]c(=O)c3ccccc23)ccc1F)N1CCN(C(=O)C2CC2)CC1 [Olaparib] (partner 8 µM) 0.306

====

Tested on: NCI-H1395
method-notes: relative viability (nuclei count vs DMSO), 5 days (fraction); higher = more cells survive
stated-conditions: first compound 2.53 µM
In this section, each of the compounds is paired with its reported relative viability.
Output: the number by itself.

Sample records with relative viability:
- compound: "Cc1cnc(-c2cnc(NCCNc3ccc(C#N)cn3)nc2-c2ccc(Cl)cc2Cl)[nH]1 + COc1cccc2cc(-c3nc([C@H]4CC[C@H](C(=O)O)CC4)n4ncnc(N)c34)[nH]c12 [OSI-027] (partner 0.5 µM)"
  relative viability: 0.67
- compound: "Cc1cnc(-c2cnc(NCCNc3ccc(C#N)cn3)nc2-c2ccc(Cl)cc2Cl)[nH]1 + NC(=O)Nc1cc(-c2cccc(F)c2)sc1C(=O)N[C@H]1CCCNC1 [AZD7762] (partner 0.2 µM)"
  relative viability: 0.374

GET /values?readout=relative viability&item= O=c1[nH]c2ccccc2n1C1CCN(CCCC(c2ccc(F)cc2)c2ccc(F)cc2)CC1 [Pimozide] + CC1(C)CCC(c2ccc(Cl)cc2)=C(CN2CCN(c3ccc(C(=O)NS(=O)(=O)c4ccc(N[C@H](CCN5CCOCC5)CSc5ccccc5)c(S(=O)(=O)C(F)(F)F)c4)cc3)CC2)C1 [Navitoclax] (partner 0.5 µM) 1.1

Then what about the compound Cc1cnc(-c2cnc(NCCNc3ccc(C#N)cn3)nc2-c2ccc(Cl)cc2Cl)[nH]1 + Cc1cc(Nc2cc(N3CCN(C)CC3)nc(Sc3ccc(NC(=O)C4CC4)cc3)n2)n[nH]1 [Tozasertib] (partner 0.1 µM) ? 0.756
